- Tested on: SK-OV-3 ovarian
- protocol: NCI tumour cell line growth inhibition, 48 h; in the data active = GI50 below about 0.43 µM; inactive = the rest
Give your call using only these classes: active, inactive

For orientation, consider the following solved cases.
[
  {
    "molecule": "CCS(=O)(=O)Nc1cccc(Nc2c3cccc(C)c3nc3c(C)cccc23)c1OC",
    "discrete-label": "inactive"
  },
  {
    "molecule": "CC1=C([Te]c2ccc(O)cc2)C(=O)c2ccccc2C1=O",
    "discrete-label": "inactive"
  },
  {
    "molecule": "Cc1cc(Oc2ccc3nc(COc4ccc(CC5SC(=O)NC5=O)cc4)n(C)c3c2)cc(C)c1N (centres undefined)",
    "discrete-label": "inactive"
  },
  {
    "molecule": "COc1cc(O)c2c(c1)C(=O)c1cc3c(c(O)c1C2=O)C(OC1OC(C)C(O)C(O)C1OC)C(OC)C(C)(O)C3=O (centres undefined)",
    "discrete-label": "inactive"
  },
  {
    "molecule": "C/C(=C(\\c1ccc(OCCN2CCCCCC2)cc1)c1ccc(OC(=O)Cc2ccccc2)cc1)c1ccc(Cl)cc1",
    "discrete-label": "inactive"
  },
  {
    "molecule": "C[C@H]1[C@H]2[C@H]3CC[C@@H]4[C@@]5(C)C/C(=C/c6cccnc6)C(=O)C(C)(C)[C@@H]5CC[C@@]4(C)[C@]3(C)CC[C@]23CO[C@]1(C)[C@@H](C(=O)/C=C\\c1cccnc1)C3",
    "discrete-label": "inactive"
  }
]

q: Hi, do you know how COc1cnc2c(c1)C(=O)c1c-2n(CCCNC(C)C)c(=O)c2cc(F)ccc12 came out in this test?
a: active

q: Hi, do you know how Nc1c(C(=O)c2ccc(CCCN3CCOCC3)cc2)cnn1-c1ccc(F)cc1 came out in this test?
a: inactive

q: Hi, do you know how CN(C)CCOC(c1ccccc1)c1ccccc1 came out in this test?
a: inactive

====

- System: PC-3 prostate
- protocol: NCI tumour cell line growth inhibition, 48 h
// values below are reported TGI
Reply with just the number (in µM).

[
  {
    "chemical-smiles": "C[C@]12CC[C@H](O)CC1=CC[C@@H]1[C@@H]2CC[C@]2(C)C(=N/O)/C(=C/c3ccc([N+](=O)[O-])cc3)C[C@@H]12",
    "system-name": "PC-3 prostate",
    "readout-value": 14.3
  }
]

q: Requested read-out: TGI. Entry: CCCC(=O)O.CCCC(=O)O.CCCC(=O)O.CCCC(=O)O.[Rh].[Rh]
a: 0.47

====

// values below are reported GI50
- System: MOLT-4 leukemia
- protocol: NCI tumour cell line growth inhibition, 48 h

[
  {
    "compound": "O=C1OC(c2ccccc2)(c2cc(Br)c(O)c(Br)c2)c2ccccc21 (stereo not drawn)",
    "readout-value": "30.4 µM"
  },
  {
    "compound": "c1ccc(CN=C(NCc2ccccc2)NCc2ccccc2)cc1",
    "readout-value": "3.77 µM"
  },
  {
    "compound": "C[C@H]1[C@H]2[C@H]3CC[C@@H]4[C@@]5(C)C/C(=C/c6cccnc6)C(=O)C(C)(C)[C@@H]5CC[C@@]4(C)[C@]3(C)CC[C@]23CO[C@]1(C)[C@@H](C(=O)/C=C\\c1cccnc1)C3",
    "readout-value": "0.524 µM"
  },
  {
    "compound": "C[n+]1ccc(-c2c3nc(c(-c4cc[n+](C)cc4)c4ccc([n-]4)c(-c4cc[n+](C)cc4)c4nc(c(-c5cc[n+](C)cc5)c5ccc2[n-]5)C=C4)C=C3)cc1.[I-].[Zn+2]",
    "readout-value": "28.4 µM"
  },
  {
    "compound": "C=C(CN1CCN(c2cccc(C(F)(F)F)n2)CC1)c1ccc(C(=S)Nc2ccccc2N)cc1",
    "readout-value": "2.1 µM"
  },
  {
    "compound": "Cc1cc(O)cc(C)c1/C=C/c1cncc(-c2nn[nH]n2)c1",
    "readout-value": "> 25 µM"
  }
]

q: Requested read-out: GI50. Entry: O=C(NCc1ccncc1)C12CC3CC(C1)CC(c1ccc(Cl)cc1)(C3)C2
a: 8.15 µM

q: Requested read-out: GI50. Entry: CCN(CC)CCCC(C)N=c1cc(Nc2cc(=NC(C)CCCN(CC)CC)c3cc(OC)ccc3o2)oc2ccc(OC)cc12 (stereo not drawn)
a: 0.725 µM

====

// values below are reported TGI
- Test system: DLD-1 colon
- protocol: NCI tumour cell line growth inhibition, 48 h

Worked cases, answers included:
[
  {
    "molecule": "OC1C2CCC1C1C3C=CC(C3)C21 (configuration not stated)",
    "TGI": "> 100 µM"
  },
  {
    "molecule": "COc1cc2c(cc1OC)C(=O)Cc1ccc(OC)c(OC)c1CN(C)CC2",
    "TGI": "> 100 µM"
  },
  {
    "molecule": "CC(C)(C)OC(=O)NC1CCC(C(C)(C)C)CC1 (configuration not stated)",
    "TGI": "> 100 µM"
  },
  {
    "molecule": "CSCCOC(=O)C(=[N+]=[N-])c1ccc([N+](=O)[O-])cc1",
    "TGI": "> 100 µM"
  },
  {
    "molecule": "CCOc1ccc(NC(=O)C2=C(C)NC(C)=C(C(=O)Nc3ccc(OCC)cc3)C2c2ccccc2)cc1",
    "TGI": "> 100 µM"
  },
  {
    "molecule": "CCOc1ccccc1NC(=O)CCc1n[nH]c(=S)o1",
    "TGI": "> 100 µM"
  },
  {
    "molecule": "COc1ccc2nc3ccccc3c(NCCCN(C)CCCl)c2c1",
    "TGI": "3.68 µM"
  },
  {
    "molecule": "O=C1CC(O)(c2ccccc2)C(c2ccccc2)=C1c1ccccc1 (configuration not stated)",
    "TGI": "> 100 µM"
  },
  {
    "molecule": "CC(=O)c1cccc(NC(=O)C(=O)Nn2c(N)nnc2N)c1",
    "TGI": "> 100 µM"
  },
  {
    "molecule": "c1ccc2c(c1)[nH]c1c2nc2ncccn21",
    "TGI": "> 100 µM"
  }
]

q: Requested read-out: TGI. Entry: NCCN1C(=O)C2C3c4ccccc4C(c4ccccc43)C2C1=O (configuration not stated)
a: > 100 µM

q: Requested read-out: TGI. Entry: O=C1c2ccccc2C(=O)N1C/C=C/CO
a: > 100 µM

====

- Tested on: HOP-92 NSCLC
- protocol: NCI tumour cell line growth inhibition, 48 h; in the data active means GI50 below about 0.43 µM; inactive means the rest
Give your call using only these classes: active, inactive

For orientation, consider the following solved cases.
[
  {
    "molecule": "CCc1ccc2c(c1)N(CCO)C1=C(C(=O)OC1)C2c1cccc(Cl)c1 (stereo not drawn)",
    "discrete-label": "inactive"
  },
  {
    "molecule": "O=C(NN=C1CCCCC1)c1[nH]c2ccc(F)cc2c1-c1ccccc1",
    "discrete-label": "inactive"
  },
  {
    "molecule": "CCCC(=O)O.CCCC(=O)O.CCCC(=O)O.CCCC(=O)O.[Rh].[Rh]",
    "discrete-label": "active"
  },
  {
    "molecule": "CCCCN(CCCC)CCCn1c(=O)c2c3ccccc3n(C)c2n2nnc(-c3ccccc3)c12",
    "discrete-label": "inactive"
  },
  {
    "molecule": "COc1cc(/C=C/C(=O)c2ccc(NC(=O)CSc3nnc(-c4cc(OC)c(OC)c(OC)c4)n3-c3ccccc3)cc2)cc(OC)c1OC",
    "discrete-label": "inactive"
  }
]

q: Hi, do you know how C[C@H]1[C@H]2[C@H]3CC[C@@H]4[C@@]5(C)C/C(=C/c6cccnc6)C(=O)C(C)(C)[C@@H]5CC[C@@]4(C)[C@]3(C)CC[C@]23CO[C@]1(C)[C@@H](C(=O)/C=C\c1cccnc1)C3 came out in this test?
a: inactive

q: Hi, do you know how COc1cc(-c2nn(-c3cccc(NC(=O)c4ccc(N5CCOCC5)c(C(F)(F)F)c4)c3)cc2-c2ccncc2)ccc1Cl came out in this test?
a: active

q: Hi, do you know how O=C1OC(c2ccccc2)(c2cc(Br)c(O)c(Br)c2)c2ccccc21 (stereo not drawn) came out in this test?
a: inactive

====

// values below are reported TGI
- Tested on: CCRF-CEM leukemia
- protocol: NCI tumour cell line growth inhibition, 48 h

Worked cases, answers included:
[
  {
    "molecule": "Nc1ncnc2c1ncn2[C@H]1CC[C@@H](NO)C1",
    "TGI": "> 100 µM"
  },
  {
    "molecule": "CC(C)=CCN1c2ccc(Cl)cc2NC(=O)CC1C (stereo not given)",
    "TGI": "> 100 µM"
  },
  {
    "molecule": "CSc1nc(SC)c2ncn(C3CC(Oc4ccc(C)cc4)C(COc4ccc(C)cc4)O3)c2n1 (stereo not given)",
    "TGI": "> 100 µM"
  },
  {
    "molecule": "c1ccc(CN=C(NCc2ccccc2)NCc2ccccc2)cc1",
    "TGI": "62.5 µM"
  },
  {
    "molecule": "CC(C)SC(NC(=O)C1C(C)(C)CCC1(C)C)C(=O)O (stereo not given)",
    "TGI": "> 100 µM"
  },
  {
    "molecule": "CNc1nnc(CNc2ccc(-c3nnc(NC)n3N)cc2)n1N",
    "TGI": "> 100 µM"
  }
]

Switching to the query record.
q: Requested read-out: TGI. Entry: CC1=C([Te]c2ccc(O)cc2)C(=O)c2ccccc2C1=O
a: 4.38 µM

Values from PubChem BioAssay (NCI)
